# credit: patent US12539292B2

Biological target: BRM (Homo sapiens, UniProt P51531)
Construct: In-Cell Western Screen of BRM Degradation in SW1573 Cells; endogenous in cells; host or cells: SW1573
Sequence (P51531 whole entry): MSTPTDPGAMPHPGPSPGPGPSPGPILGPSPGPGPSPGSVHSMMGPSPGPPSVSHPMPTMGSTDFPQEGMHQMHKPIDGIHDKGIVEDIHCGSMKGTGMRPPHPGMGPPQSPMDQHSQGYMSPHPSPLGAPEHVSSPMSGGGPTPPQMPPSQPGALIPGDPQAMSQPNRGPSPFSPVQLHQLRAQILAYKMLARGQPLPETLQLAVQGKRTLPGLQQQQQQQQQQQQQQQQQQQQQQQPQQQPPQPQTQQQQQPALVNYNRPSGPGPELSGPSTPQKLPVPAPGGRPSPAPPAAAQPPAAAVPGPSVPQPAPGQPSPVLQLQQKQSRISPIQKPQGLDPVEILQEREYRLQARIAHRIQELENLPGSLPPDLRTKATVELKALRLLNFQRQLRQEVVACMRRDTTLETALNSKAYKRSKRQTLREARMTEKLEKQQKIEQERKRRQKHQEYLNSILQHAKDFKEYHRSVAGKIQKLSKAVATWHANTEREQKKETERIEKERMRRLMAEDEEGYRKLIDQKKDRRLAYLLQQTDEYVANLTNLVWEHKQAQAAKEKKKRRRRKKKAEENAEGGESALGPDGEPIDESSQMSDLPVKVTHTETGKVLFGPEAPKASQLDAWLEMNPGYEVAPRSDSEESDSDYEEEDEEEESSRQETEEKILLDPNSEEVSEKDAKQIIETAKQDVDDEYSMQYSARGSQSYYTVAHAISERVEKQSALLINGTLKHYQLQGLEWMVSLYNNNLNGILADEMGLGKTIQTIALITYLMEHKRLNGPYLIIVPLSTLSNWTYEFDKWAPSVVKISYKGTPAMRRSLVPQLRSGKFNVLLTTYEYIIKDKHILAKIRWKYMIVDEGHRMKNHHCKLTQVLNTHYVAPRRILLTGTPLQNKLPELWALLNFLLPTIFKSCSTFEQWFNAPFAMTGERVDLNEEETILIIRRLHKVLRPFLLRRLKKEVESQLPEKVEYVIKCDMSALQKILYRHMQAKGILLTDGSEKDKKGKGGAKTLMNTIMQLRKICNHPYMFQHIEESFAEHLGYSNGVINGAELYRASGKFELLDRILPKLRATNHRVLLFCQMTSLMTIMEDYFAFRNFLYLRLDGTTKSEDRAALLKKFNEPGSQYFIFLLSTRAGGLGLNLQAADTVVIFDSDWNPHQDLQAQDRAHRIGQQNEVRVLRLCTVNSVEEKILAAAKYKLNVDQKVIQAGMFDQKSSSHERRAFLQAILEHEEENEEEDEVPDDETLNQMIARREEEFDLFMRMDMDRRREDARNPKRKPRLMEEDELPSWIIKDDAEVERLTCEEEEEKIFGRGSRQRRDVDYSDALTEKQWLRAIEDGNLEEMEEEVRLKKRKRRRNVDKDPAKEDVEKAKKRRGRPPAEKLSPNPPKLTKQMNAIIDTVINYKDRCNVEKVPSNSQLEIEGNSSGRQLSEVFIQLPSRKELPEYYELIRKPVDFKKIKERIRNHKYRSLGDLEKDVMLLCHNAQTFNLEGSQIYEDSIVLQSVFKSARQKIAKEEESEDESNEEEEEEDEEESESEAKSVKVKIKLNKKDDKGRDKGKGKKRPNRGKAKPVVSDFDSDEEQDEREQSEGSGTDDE
Experiment: In-cell Western screen of BRM degradation in SW1573 cells (Dmax and DC50)
Format: cell-based
Conditions: degradation of BRM; read-out: BRM DC50
property-label: DC50

smiles-record: Cc1nccn1-c1ccc([C@H](C)NC(=O)[C@@H]2C[C@@H](O)CN2C(=O)[C@H](c2cc(N3CCN(CCN4CCC(O[C@H]5C[C@H](Oc6cc(N7C8CCC7CN(c7cc(-c9ccccc9O)nnc7N)C8)ccn6)C5)CC4)CC3)no2)C(C)C)cc1
DC50: > 30 nM
//
smiles-record: Cc1ncsc1-c1ccc([C@@H](NC(=O)[C@@H]2C[C@@H](O)CN2C(=O)[C@@H](c2cc(OCCN3CCC(O[C@H]4C[C@H](Oc5cc(N6C7CCC6CN(c6cc(-c8ccccc8O)nnc6N)C7)ccn5)C4)CC3)no2)C(C)C)C(=O)N(C)C2CCC2)cc1
DC50: < 2.5 nM
//
smiles-record: Cc1ncsc1-c1ncc([C@H](C)NC(=O)[C@@H]2C[C@@H](O)CN2C(=O)[C@@H](c2cc(OCCN3CCC(O[C@H]4C[C@H](Oc5cc(N6C7CCC6CN(c6cc(-c8ccccc8O)nnc6N)C7)ccn5)C4)CC3)no2)C(C)C)cn1
DC50: 2.5 to 10 nM
//
smiles-record: Cc1ncsc1-c1ccc([C@H](C)NC(=O)[C@@H]2C[C@@H](O)CN2C(=O)[C@H](c2cc(N3CCN(CCN4CCC(O[C@H]5C[C@H](Oc6cc(N7C8CCC7CN(c7cc(-c9ccccc9O)nnc7N)C8)ccn6)C5)CC4)CC3)no2)C(C)C)cn1
DC50: > 30 nM
//
smiles-record: Cc1ncsc1-c1ccc([C@H](C)NC(=O)[C@@H]2C[C@@H](O)CN2C(=O)[C@@H](c2cc(N3CCC(O[C@H]4C[C@H](Oc5cc(N6C7CCC6CN(c6cc(-c8ccccc8O)nnc6N)C7)ccn5)C4)CC3)no2)C(C)C)cc1
DC50: < 2.5 nM

Considering "Cc1cc([C@H](C(=O)N2C[C@H](O)C[C@H]2C(=O)N[C@@H](C)c2ccc(-c3scnc3C)cc2)[C@@H](C)COCCCCOc2cc(N3C4CCC3CN(c3cc(-c5ccccc5O)nnc3N)C4)ccn2)on1" , its DC50 with BRM (Homo sapiens, UniProt P51531) was recorded as 10 to 30 nM

Considering "Cc1ncsc1-c1ccc([C@@H](C)NC(=O)[C@@H]2C[C@@H](O)CN2C(=O)[C@H](c2cc(OCCN3CCC(O[C@H]4C[C@H](Oc5cc(N6C7CCC6CN(c6cc(-c8ccccc8O)nnc6N)C7)ccn5)C4)CC3)no2)C(C)C)nn1" , its DC50 with BRM (Homo sapiens, UniProt P51531) was recorded as > 30 nM

Considering "Cc1cc([C@H](C(=O)N2C[C@H](O)C[C@H]2C(=O)N[C@@H](C)c2ccc(-c3scnc3C)cc2)[C@H](C)COCCCCN2C3CCC2CN(c2cc(-c4ccccc4O)nnc2N)C3)on1" , its DC50 with BRM (Homo sapiens, UniProt P51531) was recorded as > 30 nM

###

Molecular target: BRM (Homo sapiens, UniProt P51531)
Construct: In-Cell Western Screen of BRM Degradation in SW1573 Cells; endogenous in cells; host or cells: SW1573
Test: In-cell Western screen of BRM degradation in SW1573 cells (Dmax and DC50)
Format: cell-based
Conditions: BRM degradation; read-out: BRM DC50
property-label: DC50

molecule: Cc1cc([C@H](C(=O)N2C[C@H](O)C[C@H]2C(=O)N[C@@H](C)c2ccc(-c3scnc3C)cc2)[C@H](C)COCCOc2cc(N3C4CCC3CN(c3cc(-c5ccccc5O)nnc3N)C4)ccn2)on1 [compound 514]
target: BRM (Homo sapiens, UniProt P51531)
property-label: DC50
reported-measurement: > 30 nM

Here's the next entry for you.
DC50 reading for Cc1ncsc1-c1ccc([C@H](C)NC(=O)[C@@H]2C[C@@H](O)CN2C(=O)[C@@H](c2cc(OCCN3CCC(O[C@H]4C[C@H](Oc5cc(N6C7CCC6CN(c6ccnc8nc(-c9ccccc9O)cn68)C7)ccn5)C4)CC3)no2)C(C)C)cc1 [compound 515] : > 30 nM
